Recorded IC50 for the following binders
- STUDY SYSTEM: T1, human IL-1α (human, UniProt P01583 113-271)
- T1 construct: also called IL-1alpha; hIL-1α
- T1 sequence (looked up): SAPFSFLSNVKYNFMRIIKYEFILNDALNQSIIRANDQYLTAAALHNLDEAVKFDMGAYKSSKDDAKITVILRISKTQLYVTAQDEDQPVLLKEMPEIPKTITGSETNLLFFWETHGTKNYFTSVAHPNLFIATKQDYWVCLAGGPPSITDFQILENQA
- PROCEDURE SUMMARY: Table 62 IC50; RBA presumed
Just the number please, in nM, no unit attached.

1. ABT1-95-35 (other, VK dAb) VL: DIQMTQSPSSLSASVGDRVTITCRASGPIVRNLRWYQQKPGKAPKLLIYSSSYLEPGVPSRFSGSGSGTDFTLTISSLQPEDFATYHCQQGYRWPVTFGQGTKVEIKR | 0.2

Please look at the following binder next.
Q. I am curious: what IC50 value has been reported for ABT1-95-70 (other, VK dAb) VL: DIQMTQSPSSLSASVGDRVTITCRASQPIVRNLRWYQQKPGKAPKLLVYGSSYLEPGVPSRFSGSGSGTDFTLTISSLQPEDFATYHCQQGYRWPVTFGQGTKVEIKR ?
A. 0.1
